These measurements were taken from paper PMC10694180.

system: hypoxia induced ID8 mouse ovarian epithelial cell line; experiment: MTT assay, hypoxia induced ovarian cancer cell line ID8; type: cell-based; details: Mus musculus, Epithelial cell, 72 h, read-out: IC50 (μM), viability of Ovarian cancer cell lines ID8, hypoxia induced ID8, MTT, 72 h, n = 3
What IC50 was measured for each of the following?
Write the number in µM without appending the unit.

The value of IC50 measured for the compound O=C(CNCc1ccc(F)cc1)N1CCOCC1 [Compound 1k] turned out to be 64.2

The value of IC50 measured for the compound O=C(CNCc1ccc(Cl)cc1)N1CCOCC1 [Compound 1j] turned out to be 21.5

The value of IC50 measured for the compound COc1ccccc1NCC(=O)N1CCOCC1 [Compound 1f] turned out to be 158

The value of IC50 measured for the compound O=C(CNc1nnc(-c2ccccc2)o1)N1CCOCC1 [Compound 1l] turned out to be 15.6

The value of IC50 measured for the compound COc1ccc(NCC(=O)N2CCOCC2)cc1 [Compound 1e] turned out to be 26.4

The value of IC50 measured for the compound O=C(CSc1nc2ccccc2s1)N1CCOCC1 [Compound 1m] turned out to be 32.4

The value of IC50 measured for the compound O=C(COc1ccccc1)N1CCOCC1 [Compound 1g, 1-(morpholin-4-yl)-2-phenoxyethanone] turned out to be 146

The value of IC50 measured for the compound O=C(CN1CCCC1)N1CCOCC1 [Compound 1b] turned out to be 14.8

The value of IC50 measured for the compound COc1cccc(NCC(=O)N2CCOCC2)c1 [Compound 1d] turned out to be 25.3
